# Tested on: P. aeruginosa PA263
# assay.explanation: Potentiation of known antibiotics (MIC of antibiotic alone or with PAFA)
# Assay type: cell-based
# particulars: Pseudomonas aeruginosa, PA263, 24 h, MIC of antibiotic, PA263, +PAFA10 (10 μM), 24 h
Please go through the items and note down their MIC.
Give bare numbers, in µg/mL.

Hello, I would appreciate it if you could give MIC for each entry below.
1. CN(C)c1ccc(O)c2c1C[C@H]1C[C@H]3[C@H](N(C)C)C(O)=C(C(N)=O)C(=O)[C@@]3(O)C(O)=C1C2=O [MINO, minocycline]
2. CN(C)[C@@H]1C(O)=C(C(N)=O)C(=O)[C@@]2(O)C(O)=C3C(=O)c4c(O)cccc4[C@@](C)(O)[C@H]3C[C@@H]12 [TET, tetracycline]
3. CN(C)[C@@H]1C(O)=C(C(N)=O)C(=O)[C@@]2(O)C(O)=C3C(=O)c4c(O)cccc4[C@@](C)(O)[C@H]3[C@H](O)[C@@H]12 [OXY, oxytetracycline]
4. C[C@H]1c2cccc(O)c2C(=O)C2=C(O)[C@]3(O)C(=O)C(C(N)=O)=C(O)[C@@H](N(C)C)[C@@H]3[C@@H](O)[C@@H]21 [DOX, doxycycline]

output:
[4, 8, 8, 8]

* * *

# Test system: E. coli AG-100A
# assay.explanation: Potentiation of known antibiotics (MIC of antibiotic alone or with PAFA)
# Assay type: cell-based
# particulars: Escherichia coli, AG100A, 24 h, MIC of antibiotic, +PAFA14 (10 μM)
measured.parameter: MIC (ng/mL)
Numbers only, in ng/mL.

given_smiles=CN(C)c1ccc(O)c2c1C[C@H]1C[C@H]3[C@H](N(C)C)C(O)=C(C(N)=O)C(=O)[C@@]3(O)C(O)=C1C2=O assay_system="E. coli AG-100A" meas_value=4
given_smiles=C[C@H]1c2cccc(O)c2C(=O)C2=C(O)[C@]3(O)C(=O)C(C(N)=O)=C(O)[C@@H](N(C)C)[C@@H]3[C@@H](O)[C@@H]21 assay_system="E. coli AG-100A" meas_value=8
given_smiles=CN(C)[C@@H]1C(O)=C(C(N)=O)C(=O)[C@@]2(O)C(O)=C3C(=O)c4c(O)cccc4[C@@](C)(O)[C@H]3C[C@@H]12 assay_system="E. coli AG-100A" meas_value=8

Let's switch to this molecule now.
input: Given CN(C)[C@@H]1C(O)=C(C(N)=O)C(=O)[C@@]2(O)C(O)=C3C(=O)c4c(O)cccc4[C@@](C)(O)[C@H]3[C@H](O)[C@@H]12 , state its recorded MIC.
output: 8

* * *

Kindly state MIC for each of the entries shown.
# System: P. aeruginosa PA0509
# assay.explanation: Potentiation of known antibiotics (MIC of antibiotic alone or with PAFA)
# Format: cell-based
# particulars: Pseudomonas aeruginosa, PA0509, 24 h, MIC of antibiotic, PA0509, +PAFA10 (10 μM), 24 h
# Experimental: 100 μl of a liquid culture medium is deposited in each well of a 96-well microplate, and then inoculated with the bacterial suspension of example 2.1 prepared for the positive control. The volume needed to inoculate is calculated for an OD of 0.01 which corresponds to approximately 5,106 bacteria in each well. […]
One number for each entry, in µg/mL.

Example compounds with recorded MIC:
given_smiles=CN(C)c1ccc(O)c2c1C[C@H]1C[C@H]3[C@H](N(C)C)C(O)=C(C(N)=O)C(=O)[C@@]3(O)C(O)=C1C2=O measured_parameter=MIC meas_value=0.5
given_smiles=CN(C)[C@@H]1C(O)=C(C(N)=O)C(=O)[C@@]2(O)C(O)=C3C(=O)c4c(O)cccc4[C@@](C)(O)[C@H]3C[C@@H]12 measured_parameter=MIC meas_value=0.5

Provide the reported MIC of each entry below, same order.
1. CN(C)[C@@H]1C(O)=C(C(N)=O)C(=O)[C@@]2(O)C(O)=C3C(=O)c4c(O)cccc4[C@@](C)(O)[C@H]3[C@H](O)[C@@H]12
2. C[C@H]1c2cccc(O)c2C(=O)C2=C(O)[C@]3(O)C(=O)C(C(N)=O)=C(O)[C@@H](N(C)C)[C@@H]3[C@@H](O)[C@@H]21

output:
[0.25, 0.25]

* * *

# System: E. coli AG-100A
# assay.explanation: Potentiation of known antibiotics (MIC of antibiotic alone or with PAFA)
# Assay type: cell-based
# particulars: Escherichia coli, AG100A, 24 h, MIC of antibiotic, +PAFA11 (10 μM)
Could you please report measured MIC for the items listed next?
State the value with its unit after it.

compound="CN(C)[C@@H]1C(O)=C(C(N)=O)C(=O)[C@@]2(O)C(O)=C3C(=O)c4c(O)cccc4[C@@](C)(O)[C@H]3[C@H](O)[C@@H]12 [OXY, oxytetracycline]" measured_parameter=MIC meas_value="1 µg/mL"
compound="C[C@H]1c2cccc(O)c2C(=O)C2=C(O)[C@]3(O)C(=O)C(C(N)=O)=C(O)[C@@H](N(C)C)[C@@H]3[C@@H](O)[C@@H]21 [DOX, doxycycline]" measured_parameter=MIC meas_value="0.25 µg/mL"
compound="CN(C)[C@@H]1C(O)=C(C(N)=O)C(=O)[C@@]2(O)C(O)=C3C(=O)c4c(O)cccc4[C@@](C)(O)[C@H]3C[C@@H]12 [TET, tetracycline]" measured_parameter=MIC meas_value="0.5 µg/mL"

input: I have this compound here, CN(C)c1ccc(O)c2c1C[C@H]1C[C@H]3[C@H](N(C)C)C(O)=C(C(N)=O)C(=O)[C@@]3(O)C(O)=C1C2=O [MINO, minocycline] , and I need its recorded MIC.
output: 0.25 µg/mL
